Tested on: HCC-1187
Assay: CellTiter-Glo cell viability, HCC-1187
Assay type: cell-based
Conditions: Homo sapiens, HCC1187, 72 h, read-out: Antiproliferative IC50u
measured metric: IC50 (nM)

[1] Cc1c2c(nn1C)CSCc1cc(n(C)n1)CSc1cc(c3ccccc3c1)OCCCc1c(C(=O)O)n(C)c3c-2c(Cl)ccc13
[2] CO[C@H]1/C=C/C[C@H](C)[C@@H](C)S(=O)(=O)NC(=O)c2ccc3c(c2)N(C[C@@H]2CC[C@H]21)C[C@@]1(CCCc2cc(Cl)ccc21)CO3
Query: Of 1 and 2 , which shows the smaller IC50 value? Reply with the label of the item you choose.
Reply: 1

====

Tested on: NCI-H82
Test: CellTiter-Glo cell viability, NCI-H82
Assay type: cell-based
Conditions: Homo sapiens, NCI-H82, 72 h, read-out: Antiproliferative IC50u
pIC50: −log10 of the molar value.
measured metric: pIC50

- Cc1c2c(nn1C)CSCc1cc(n(C)n1)CSc1cc(c3ccccc3c1)OCCCc1c(C(=O)O)n(C)c3c-2c(Cl)ccc13: 8.47
- CO[C@H]1/C=C/C[C@H](C)[C@@H](C)S(=O)(=O)NC(=O)c2ccc3c(c2)N(C[C@@H]2CC[C@H]21)C[C@@]1(CCCc2cc(Cl)ccc21)CO3: 8.31

====

Test system: SNU398
Experiment: CellTiter-Glo cell viability, SNU398
Assay type: cell-based
Conditions: Homo sapiens, SNU-398, 72 h, read-out: Anti-proliferative IC50
measured metric: IC50 (nM)

[a] CO[C@H]1/C=C/C[C@H](C)[C@@H](C)S(=O)(=O)NC(=O)c2ccc3c(c2)N(C[C@@H]2CC[C@H]21)C[C@@]1(CCCc2cc(Cl)ccc21)CO3
[b] Cc1c2c(nn1C)CSCc1cc(n(C)n1)CSc1cc(c3ccccc3c1)OCCCc1c(C(=O)O)n(C)c3c-2c(Cl)ccc13
Query: Between a and b , whose recorded IC50 is greater? // respond with label for picked entry
Reply: a
(a: 495 nM, b: 52 nM)

====

System: SU-DHL-5
Assay: CellTiter-Glo cell viability, SU-DHL-5
Format: cell-based
Conditions: Homo sapiens, SU-DHL-5, 72 h, read-out: Anti-proliferative IC50
pIC50: −log10 of the molar value.
measured metric: pIC50

[I] Cc1c2c(nn1C)CSCc1cc(n(C)n1)CSc1cc(c3ccccc3c1)OCCCc1c(C(=O)O)n(C)c3c-2c(Cl)ccc13
[II] CO[C@H]1/C=C/C[C@H](C)[C@@H](C)S(=O)(=O)NC(=O)c2ccc3c(c2)N(C[C@@H]2CC[C@H]21)C[C@@]1(CCCc2cc(Cl)ccc21)CO3
Query: Would you mind telling me which has the lower recorded pIC50 between I and II ? Select an item and report its label.
Reply: II
(II: 6.93, I: 7.85)

====

System: HCC-2157
Assay: CellTiter-Glo cell viability, HCC-2157
Type: cell-based
Details: Homo sapiens, HCC2157, 72 h, read-out: Anti-proliferative IC50
measured metric: IC50 (nM)

[P] Cc1c2c(nn1C)CSCc1cc(n(C)n1)CSc1cc(c3ccccc3c1)OCCCc1c(C(=O)O)n(C)c3c-2c(Cl)ccc13 [AZD5991]
[Q] CO[C@H]1/C=C/C[C@H](C)[C@@H](C)S(=O)(=O)NC(=O)c2ccc3c(c2)N(C[C@@H]2CC[C@H]21)C[C@@]1(CCCc2cc(Cl)ccc21)CO3 [AMG176]
Query: Of P versus Q , which is the one with smaller reported IC50? Reply briefly: the label of your chosen item.
Reply: P
